# experimental system: CYP2D6 (Homo sapiens)
# Sequence (P10635 whole entry): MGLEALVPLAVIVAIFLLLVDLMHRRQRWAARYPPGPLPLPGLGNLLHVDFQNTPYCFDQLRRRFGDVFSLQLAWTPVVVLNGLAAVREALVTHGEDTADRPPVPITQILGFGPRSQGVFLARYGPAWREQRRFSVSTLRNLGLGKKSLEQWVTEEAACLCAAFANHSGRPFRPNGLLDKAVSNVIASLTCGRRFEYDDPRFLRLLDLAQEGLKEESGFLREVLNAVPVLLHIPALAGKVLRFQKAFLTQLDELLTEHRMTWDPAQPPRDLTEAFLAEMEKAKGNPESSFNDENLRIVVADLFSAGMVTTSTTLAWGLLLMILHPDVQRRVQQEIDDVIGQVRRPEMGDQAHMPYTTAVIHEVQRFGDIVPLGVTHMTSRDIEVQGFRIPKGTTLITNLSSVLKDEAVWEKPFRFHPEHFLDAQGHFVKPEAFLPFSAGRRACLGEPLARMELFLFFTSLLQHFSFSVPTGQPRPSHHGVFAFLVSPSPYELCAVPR
# method: Metabolic stability in the presence of CYP2D6 isozyme
# Type: in vitro ADME
# Parameters: purchased BD Gentest (Woburn, Mass.)
# test parameters: 10 μm compound, incubation time 0 min
reported property: Loss of parent compound with CYP2D6 isozyme (%)

In [3]: df
Out[3]:
                                smiles_data  measured_number
0     CCCOC(=O)N(C)CCCN1c2ccccc2CCc2ccccc21             0.00
1       COC(=O)N(C)CCCN1c2ccccc2CCc2ccccc21             0.00
2  CCCCCCCCOC(=O)N(C)CCCN1c2ccccc2CCc2ccccc21             0.00
3  CC(C)COC(=O)N(C)CCCN1c2ccccc2CCc2ccccc21             0.00
4  CCOP(=O)(OCC)N(C)CCCN1c2ccccc2CCc2ccccc21             0.00

====

# method: Stability testing in simulated gastric fluids
# test parameters: 10 μM, saline pH approximately 1 plus pepsin, incubation time 120 min
reported property: Loss of parent compound in simulated gastric fluid (%)

                                   compound  measured_number
0  COC(=O)N(C)CCCN1c2ccccc2CCc2ccccc21 [RIC-5a]            81.43
1  CCOP(=O)(OCC)N(C)CCCN1c2ccccc2CCc2ccccc21 [RIC-02]            93.12
2  CC(C)COC(=O)N(C)CCCN1c2ccccc2CCc2ccccc21 [RIC-5c]            98.11
3  CCCOC(=O)N(C)CCCN1c2ccccc2CCc2ccccc21 [RIC-5b]            94.37

====

# method: Metabolic stability, microsomal incubations without inhibitor
# Type: in vitro ADME
# test parameters: 10 μM, 0.5 mg/mL microsomal protein, incubation time 30 min
reported property: Loss of parent compound with no ketoconazole (%)

                                smiles_data  unit_spec  measured_number
0     CCCOC(=O)N(C)CCCN1c2ccccc2CCc2ccccc21          %            64.76
1  CCCCCCCCOC(=O)N(C)CCCN1c2ccccc2CCc2ccccc21          %            59.12
2  CCOP(=O)(OCC)N(C)CCCN1c2ccccc2CCc2ccccc21          %            76.17
3  CC(C)COC(=O)N(C)CCCN1c2ccccc2CCc2ccccc21          %            54.01
4       COC(=O)N(C)CCCN1c2ccccc2CCc2ccccc21          %            70.94

====

# method: Stability testing of prodrugs in rat plasma (elevated esterase activity)
# Type: in vitro ADME, Sprague-Dawley rat
# test parameters: 10 μM, ca. 37° C., incubation time 60 min
reported property: Loss of parent compound in rat plasma (%)

Would you please look over these solved cases?
                                smiles_data  unit_spec  measured_number
0       COC(=O)N(C)CCCN1c2ccccc2CCc2ccccc21          %            23.43
1     CCCOC(=O)N(C)CCCN1c2ccccc2CCc2ccccc21          %             8.34
2  CCOP(=O)(OCC)N(C)CCCN1c2ccccc2CCc2ccccc21          %            11.01

[a] CCCCCCCCOC(=O)N(C)CCCN1c2ccccc2CCc2ccccc21
[b] CC(C)COC(=O)N(C)CCCN1c2ccccc2CCc2ccccc21
Q) // compare: a vs b , metric Loss of parent compound in rat plasma (%), want the smaller # respond with the chosen item's label
A) b

====

# method: Stability testing of prodrugs in human plasma
# Format: in vitro ADME
# test parameters: 10 μM, ca. 37° C., incubation time 120 min
reported property: Loss of parent compound in human plasma (%)

# count of solved cases: 3
>>> df
                                smiles_data  measured_number
0  CCOP(=O)(OCC)N(C)CCCN1c2ccccc2CCc2ccccc21             7.93
1     CCCOC(=O)N(C)CCCN1c2ccccc2CCc2ccccc21            21.06
2       COC(=O)N(C)CCCN1c2ccccc2CCc2ccccc21            26.22

[I] CC(C)COC(=O)N(C)CCCN1c2ccccc2CCc2ccccc21
[II] CCCCCCCCOC(=O)N(C)CCCN1c2ccccc2CCc2ccccc21
Q) Select the item with the higher value of Loss of parent compound in human plasma (%) from the options I and II listed. Indicate which entry you chose by stating its label.
A) II
(II: 49.54%, I: 25.82%)

====

# method: Stability testing in simulated intestinal fluids
# test parameters: 10 μM, phosphate pH 6, incubation time 120 min
reported property: Loss of parent compound in simulated intestinal fluid (%)

See these solved cases before continuing.
>>> df
                                   compound  measured_number
0  CCCOC(=O)N(C)CCCN1c2ccccc2CCc2ccccc21 [RIC-5b]            25.61
1  CCOP(=O)(OCC)N(C)CCCN1c2ccccc2CCc2ccccc21 [RIC-02]             9.29

[a] CCCCCCCCOC(=O)N(C)CCCN1c2ccccc2CCc2ccccc21 [RIC-5d]
[b] CC(C)COC(=O)N(C)CCCN1c2ccccc2CCc2ccccc21 [RIC-5c]
[c] COC(=O)N(C)CCCN1c2ccccc2CCc2ccccc21 [RIC-5a]
Q) # desc sort on Loss of parent compound in simulated intestinal fluid (%) across 3 compounds As an answer, provide the labels arranged in the order called for.
A) c, b, a
(c: 35.18%, b: 21.78%, a: 4.23%)

====

# method: Stability testing in simulated gastric fluids
# test parameters: 10 μM, saline pH approximately 1 plus pepsin, incubation time 30 min
reported property: Loss of parent compound in simulated gastric fluid (%)

# annotated cases, reported Loss of parent compound in simulated gastric fluid (%) shown
In [3]: df
Out[3]:
                                smiles_data  measured_number
0  CCOP(=O)(OCC)N(C)CCCN1c2ccccc2CCc2ccccc21            49.94
1  CC(C)COC(=O)N(C)CCCN1c2ccccc2CCc2ccccc21            70.64
2       COC(=O)N(C)CCCN1c2ccccc2CCc2ccccc21            13.93

[a] CCCOC(=O)N(C)CCCN1c2ccccc2CCc2ccccc21
[b] CCCCCCCCOC(=O)N(C)CCCN1c2ccccc2CCc2ccccc21
Q) Lab note: record which item had the higher Loss of parent compound in simulated gastric fluid (%), a or b . Record your answer as the label of the chosen record.
A) a
(a: 58.72%, b: 13.84%)

====

# method: Stability testing in simulated intestinal fluids
# test parameters: 10 μM, phosphate pH 6, incubation time 30 min
reported property: Loss of parent compound in simulated intestinal fluid (%)

In [3]: df
Out[3]:
                                smiles_data  unit_spec  measured_number
0       COC(=O)N(C)CCCN1c2ccccc2CCc2ccccc21          %            16.75
1  CCOP(=O)(OCC)N(C)CCCN1c2ccccc2CCc2ccccc21          %            11.65
2  CCCCCCCCOC(=O)N(C)CCCN1c2ccccc2CCc2ccccc21          %             7.73

[a] CCCOC(=O)N(C)CCCN1c2ccccc2CCc2ccccc21
[b] CC(C)COC(=O)N(C)CCCN1c2ccccc2CCc2ccccc21
Q) Given a and b , report the one with the higher recorded Loss of parent compound in simulated intestinal fluid (%). Identify your selection by its label.
A) a

====

# method: Metabolic stability, microsomal incubations with ketoconazole (CYP3A4 inhibitor)
# Format: in vitro ADME
# test parameters: 10 μM, 0.5 mg/mL microsomal protein, incubation time 60 min
reported property: Loss of parent compound with ketoconazole (%)

[P] COC(=O)N(C)CCCN1c2ccccc2CCc2ccccc21
[Q] CC(C)COC(=O)N(C)CCCN1c2ccccc2CCc2ccccc21
Q) Exercise: compare P and Q ; which one has the greater Loss of parent compound with ketoconazole (%)? # respond with the chosen item's label
A) P

====

# method: Stability testing of prodrugs in rat plasma (elevated esterase activity)
# Type: in vitro ADME, Sprague-Dawley rat
# test parameters: 10 μM, ca. 37° C., incubation time 30 min
# Protocol: Sprague-Dawley rat plasma was obtained by collection into sodium EDTA as the anticoagulant, and was stored at ca −20° C. prior to use. Prior to use, the plasma defrosted and was spun at ca. 3000 rpm for 5 minutes to remove any precipitate. The pH of the plasma was adjusted to pH 7.4 by careful addition of NaH2PO4 buffer. Plasma stability was assessed by incubation of 10 μM of each compound prepared in Examples 1-5 with rat plasma, in duplicate, at ca. 37° C. with shaking. […]
reported property: Loss of parent compound in rat plasma (%)

[I] COC(=O)N(C)CCCN1c2ccccc2CCc2ccccc21 [RIC-5a]
[II] CC(C)COC(=O)N(C)CCCN1c2ccccc2CCc2ccccc21 [RIC-5c]
[III] CCCCCCCCOC(=O)N(C)CCCN1c2ccccc2CCc2ccccc21 [RIC-5d]
Q) // ascending sort on Loss of parent compound in rat plasma (%) for the entries above # respond with the labels, arranged in the requested order
A) II, III, I
(II: −14.69%, III: −8.16%, I: 8.81%)
